# assayed-system: CDK2/CycE (Homo sapiens, UniProt P24941)
# Construct: GST; purchased ProQinase GmbH (Freiburg, Germany); host or cells: insect cells (Sf9)
# protocol-summary: CDK2/CycE kinase assay (TR-FRET)
# Type: biochemical
# measurement-context: Method 2, 10 μM ATP
pIC50: −log10 of the molar value.
parameter: pIC50

Record excerpt, results attached:
>  <compound>
CS(=O)(=O)Cc1cccc(Nc2ncnc(-c3ccc(F)cc3OCc3cccnc3)n2)c1 [Example 74]

>  <assayed-system>
CDK2/CycE (Homo sapiens, UniProt P24941)

>  <measurement>
6.24

$$$$
>  <compound>
C[C@@H](Oc1cc(F)ccc1-c1ncnc(Nc2cccc(CS(C)(=O)=O)c2)n1)c1ccccc1 [Example 79]

>  <assayed-system>
CDK2/CycE (Homo sapiens, UniProt P24941)

>  <measurement>
6.36

$$$$
>  <compound>
CS(=O)(=O)Cc1cccc(Nc2ncnc(-c3ccccc3OCc3ccc(F)cc3)n2)c1 [Example 25]

>  <assayed-system>
CDK2/CycE (Homo sapiens, UniProt P24941)

>  <measurement>
5.96

$$$$
>  <compound>
CS(=O)(=O)Cc1cccc(Nc2ncnc(-c3ccc(F)cc3OCc3ccnc(Cl)c3)n2)c1 [Example 88]

>  <assayed-system>
CDK2/CycE (Homo sapiens, UniProt P24941)

>  <measurement>
6.89

$$$$
>  <compound>
CC#CCOc1cc(F)ccc1-c1ncnc(Nc2cccc(CS(C)(=O)=O)c2)n1 [Example 62]

>  <assayed-system>
CDK2/CycE (Homo sapiens, UniProt P24941)

>  <measurement>
6.27

$$$$

P. CS(=O)(=O)Cc1cccc(Nc2ncnc(-c3ccc(F)cc3OCc3ccccc3)n2)c1 [Example 4]
Q. COc1cc(F)ccc1-c1ncnc(Nc2cc(F)cc(CS(C)(=O)=O)c2)n1 [Example 10]
**Query** // select label with min value of measured pIC50 from [ P , Q ] I would appreciate it if you answered with the label of your choice.
**Result** Q

###

# assayed-system: CDK2/CycE (Homo sapiens, UniProt P24941)
# Construct: GST
# protocol-summary: CDK2/CycE kinase assay (TR-FRET)
# measurement-context: Method 2, 10 μM ATP
# Excerpt: 2. CDK2/CycE Kinase Assay: CDK2/CycE-inhibitory activity of compounds of the present invention was quantified employing the CDK2/CycE TR-FRET assay as described in the following paragraphs: Recombinant fusion proteins of GST and human CDK2 and of GST and human CycE, expressed in insect cells (Sf9) and purified by Glutathion-Sepharose affinity chromatography, were purchased from ProQinase GmbH (Freiburg, Germany). As substrate for the kinase reaction biotinylated peptide biotin-Ttds-[…] […]
pIC50: −log10 of the molar value.
parameter: pIC50

>  <input-smiles>
COc1cc(F)ccc1-c1ncnc(Nc2cccc(CS(=O)(=O)CCO)c2)n1

>  <pIC50>
6.21

$$$$
>  <input-smiles>
CS(=O)(=O)Cc1cccc(Nc2ncnc(-c3ccc(F)cc3OCC3(F)CCCCC3)n2)c1

>  <pIC50>
5.17

$$$$
>  <input-smiles>
CS(=O)(=O)Cc1cccc(Nc2ncnc(-c3ccc(F)cc3OCCC3CC3)n2)c1

>  <pIC50>
5.89

$$$$
>  <input-smiles>
COc1ccc(F)cc1-c1ncnc(Nc2cccc(CS(C)(=O)=O)c2)n1

>  <pIC50>
5.89

$$$$
>  <input-smiles>
COc1cnccc1-c1ncnc(Nc2cccc(CS(C)(=O)=O)c2)n1

>  <pIC50>
5.33

$$$$
>  <input-smiles>
CS(=O)(=O)Cc1cccc(Nc2ncnc(-c3ccccc3OCc3ccccc3Cl)n2)c1

>  <pIC50>
5.06

$$$$

P. COCCOc1cc(F)ccc1-c1ncnc(Nc2cccc(CS(C)(=O)=O)c2)n1
Q. CS(=O)(=O)Cc1cccc(Nc2ncnc(-c3cc(F)ccc3OCc3ccccc3F)n2)c1
**Query** // select label with min value of measured pIC50 from [ P , Q ] I would appreciate it if you answered with the label of your choice.
**Result** Q

I. CC(C)CCCOc1cc(F)ccc1-c1ncnc(Nc2cccc(CS(C)(=O)=O)c2)n1
II. CS(=O)(=O)Cc1cccc(Nc2ncnc(-c3ccc(F)cc3OCCCC(F)(F)F)n2)c1
**Query** For this pair, I and II , which shows a numerically higher pIC50? I would appreciate it if you answered with the label of your choice.
**Result** II
(II: 6.15, I: 5.92)

Origin of measurements: patent US8916557B2
